# PROTOCOL: AUC (0 to infinity) in C57BL6 mouse at 10 mg/kg, ip
# Assay type: ADME, organism-based
# Design: time infinity, route intraperitoneal, dose 10 mg/kg
# ASSAY SETUP: in vivo
MEASURED QUANTITY: AUC(0-inf) (ng·h/mL)
# value in ng·h/mL; strip the unit string

Task: Which AUC(0-inf) is listed for O=C(Nc1ccc(Br)cc1)NC1CCN(c2ccccc2)C1=O (stereo unspecified) ?
Output: 35000

* * *

# SYSTEM: N-formyl peptide receptor 2 (Homo sapiens, UniProt P25090)
# Sequence (P25090 whole entry): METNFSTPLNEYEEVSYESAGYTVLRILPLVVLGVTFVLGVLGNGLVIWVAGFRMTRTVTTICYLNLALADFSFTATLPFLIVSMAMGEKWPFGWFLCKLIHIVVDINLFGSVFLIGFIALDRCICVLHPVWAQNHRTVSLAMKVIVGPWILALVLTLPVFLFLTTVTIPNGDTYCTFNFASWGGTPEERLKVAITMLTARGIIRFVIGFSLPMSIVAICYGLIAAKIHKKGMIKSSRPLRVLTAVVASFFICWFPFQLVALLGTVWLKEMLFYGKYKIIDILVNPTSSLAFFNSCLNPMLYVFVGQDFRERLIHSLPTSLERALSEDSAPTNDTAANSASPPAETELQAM
# PROTOCOL: Agonist activity at FPRL1 (unknown origin) expressed in CHO-K1 cells assessed as increase in calcium mobilization incubated for 2.5 hrs by cellular based FLIPR assay
# Format: functional, cell-based
# ASSAY SETUP: read-out: EC50
I'd appreciate it if you marked entries Fulfilled when EC50 is lower than 400 nM and Not fulfilled when it is not.

Task: Dear colleague, could you confirm whether EC50 of N#Cc1ccc(NC(=O)NC2CCN(c3ccccc3F)C2=O)cc1 (stereo not given) falls below 400 nM? Thanks.
Output: Not fulfilled

Task: Dear colleague, could you confirm whether EC50 of CC(C)(C)OC(=O)N1CCC(N2CCC(NC(=O)Nc3ccc(Br)cc3)C2=O)CC1 (stereo not given) falls below 400 nM? Thanks.
Output: Not fulfilled

Task: Dear colleague, could you confirm whether EC50 of O=C(Nc1ccc(Br)cc1)NC1CCN(c2ccc(F)cc2)C1=O (stereo not given) falls below 400 nM? Thanks.
Output: Not fulfilled

Task: Dear colleague, could you confirm whether EC50 of O=C(Nc1ccc(Br)cc1)NC1CCN(CC2CCN(Cc3ccccc3)CC2)C1=O (stereo not given) falls below 400 nM? Thanks.
Output: Fulfilled

Task: Dear colleague, could you confirm whether EC50 of O=C(Nc1ccc(Br)cc1)NC1CCN(C2CCN(Cc3ccccc3)CC2)C1=O (stereo not given) falls below 400 nM? Thanks.
Output: Fulfilled
